Each recorded value in this set is attributed to patent US20080194585A1.

- Tested on: Botrytis cinerea
- method-notes: Test E: tomato botrytis, preventive spray on tomato seedlings
- assay-conditions: 40 ppm (marked *); 100 = 100% disease control, 0 = no control
Marks after values point to notes of the source that are not given here.
test-readout: Test E disease control rating

What Test E disease control rating value was documented for this compound, N#Cc1nc(Cl)c(-c2c(F)cccc2F)n(Cc2cccc(Cl)c2)c1=O ?
0* %

Any idea what Test E disease control rating was measured for O=c1c(-n2cccn2)nc(Cl)c(-c2c(F)cc(F)cc2F)n1-c1ccc(C(F)(F)F)cc1 ?
95* %

I am curious: what Test E disease control rating value has been reported for Cc1ccn(-c2nc(Cl)c(-c3c(F)cc(F)cc3F)n(-c3cc(Cl)cc(Cl)c3)c2=O)n1 ?
99* %

###

- Tested on: Colletotrichum orbiculare
- method-notes: Test B: cucumber Colletotrichum anthracnose, preventive spray on cucumber seedlings
- assay-conditions: 200 ppm; 100 = 100% disease control, 0 = no control
test-readout: Test B disease control rating (%)
Answer with a number only, understood to be in %.

Look up Test B disease control rating for this molecule: CCCNC(=O)c1nc(Cl)c(-c2c(F)cccc2F)n(CC(C)CC)c1=O (stereo not drawn)
40

Fill blank: measured Test B disease control rating of the molecule Cc1ccn(-c2nc(Cl)c(CC(C)C)n(CC(C)C)c2=O)n1 is ____.
0

###

Reported Test I disease control rating values are given for each entry in this list.
- Test system: fusarium graminearium
- method-notes: Test I: wheat head scab, preventive spray on wheat seedlings
- assay-conditions: 200 ppm; 100 = 100% disease control, 0 = no control
Give the number; % is assumed, so skip it.

Endpoint output: Test I disease control rating of CC(C)Cn1c(-c2c(F)cccc2F)c(Cl)nc(-c2cnccn2)c1=O [compound 350] . Value?
80

Item under review: CCc1c(Cl)nc(-n2cccn2)c(=O)n1CC(C)C [compound 316] . Reported Test I disease control rating?
0

I am curious: what Test I disease control rating value has been reported for CC(C)Cc1c(Cl)nc(-n2cccn2)c(=O)n1CC(C)C [compound 292] ?
0

Consider the compound CCC(C)Cn1c(-c2c(F)cccc2F)c(Cl)nc(C(=O)NCCO)c1=O (centres unmarked) [compound 349] and give its measured Test I disease control rating.
0

Reported Test I disease control rating for O=c1c(-n2cccn2)nc(Cl)c(-c2c(F)cc(F)cc2F)n1Cc1ccc(C(F)(F)F)cc1 [compound 346] : what is it?
0

Requested read-out: Test I disease control rating. Entry: CCCNC(=O)c1nc(Cl)c(-c2c(F)cccc2F)n(CC(C)CC)c1=O (centres unmarked) [compound 299]
100

Test I disease control rating lookup needed for O=c1c(-n2cccn2)nc(Cl)c(-c2c(F)cc(F)cc2F)n1Cc1cccc(C(F)(F)F)c1 [compound 347] , thanks.
0

Given the compound CC(C)Cn1c(-c2ccc(F)cc2Cl)c(Cl)nc(-n2cccn2)c1=O [Compound 303] , what is its reported Test I disease control rating?
0

###

- Test system: fusarium graminearium
- method-notes: Test I: wheat head scab, preventive spray on wheat seedlings
- assay-conditions: 200 ppm; 100 = 100% disease control, 0 = no control
Reported Test I disease control rating by item:
All answers are understood in %, so give the number only.

{"compound": "CC(C)Cn1c(-c2c(F)cccc2F)c(Cl)nc(N2CCCC2)c1=O", "tested-system": "fusarium graminearium", "Test I disease control rating / %": 18}
{"compound": "O=c1c(-n2cccn2)nc(Cl)c(-c2c(F)cc(F)cc2F)n1-c1cccc(Br)c1", "tested-system": "fusarium graminearium", "Test I disease control rating / %": 78}
{"compound": "O=c1c(-n2cccn2)nc(Cl)c(-c2c(F)cccc2F)n1C1CC1", "tested-system": "fusarium graminearium", "Test I disease control rating / %": 0}

Lab note: next compound to report on.
Fill in the blank: the reported Test I disease control rating of CC(C)c1c(Cl)nc(-n2cccn2)c(=O)n1Cc1ccccc1 is ____.
0

###

- Test system: Puccinia recondita f. sp. tritici
- method-notes: Test K: wheat leaf rust, preventive spray on wheat seedlings
- assay-conditions: 200 ppm
test-readout: Test K disease control rating (%)
Quick reminder: number only, in %, skip the unit.

Worked set:
{"compound": "Cc1nc(C)n(-c2nc(Cl)c(-c3ccc(Cl)cc3)n(CC(C)C)c2=O)n1", "tested-system": "Puccinia recondita f. sp. tritici", "Test K disease control rating / %": 0}
{"compound": "CCC(C)Cn1c(-c2c(F)cccc2F)c(Cl)nc(-n2nc(C)cc2C)c1=O (centres unmarked)", "tested-system": "Puccinia recondita f. sp. tritici", "Test K disease control rating / %": 83}
{"compound": "O=c1c(-n2cncn2)nc(Cl)c(-c2c(F)cccc2F)n1Cc1ccccc1", "tested-system": "Puccinia recondita f. sp. tritici", "Test K disease control rating / %": 100}
{"compound": "Cn1c(-c2ccccc2F)c(Cl)nc(-n2cncn2)c1=O", "tested-system": "Puccinia recondita f. sp. tritici", "Test K disease control rating / %": 0}

Now for a further compound.
Suppose we examine the compound CC(C)n1c(-c2c(F)cccc2F)c(Cl)nc(-n2cncn2)c1=O ; what Test K disease control rating value has been reported?
100

###

- Test system: Puccinia recondita f. sp. tritici
- method-notes: Test K: wheat leaf rust, preventive spray on wheat seedlings
- assay-conditions: 40 ppm (*)
Marks after values point to notes of the source that are not given here.
Measured Test K disease control rating of individual entries

{"compound": "CCn1c(-c2c(F)cccc2F)c(Cl)nc(-n2cccn2)c1=O [compound 184]", "measured-value": "98* %"}
{"compound": "O=c1c(-n2cccn2)nc(Cl)c(-c2c(F)cccc2F)n1CC1CCCO1 (centres unmarked) [compound 91]", "measured-value": "0* %"}
{"compound": "CCC(C)Cn1c(-c2c(F)cccc2F)c(Cl)nc(-n2ccnn2)c1=O (centres unmarked) [compound 60]", "measured-value": "68* %"}
{"compound": "CC(C)Cn1c(-c2ccc3c(c2)OCO3)c(Cl)nc(-n2cncn2)c1=O [compound 114]", "measured-value": "0* %"}
{"compound": "CCC(CC)n1c(-c2c(F)cccc2F)c(Cl)nc(-n2cccn2)c1=O [compound 181]", "measured-value": "100* %"}
{"compound": "CC(C)Cn1c(-c2c(F)c(F)c(F)c(F)c2F)c(Cl)nc(-n2cccn2)c1=O [compound 171]", "measured-value": "96* %"}
{"compound": "Cc1ccn(-c2nc(Cl)c(-c3c(F)cccc3F)n(CC(C)C)c2=O)n1 [compound 241]", "measured-value": "100* %"}

Now for a further compound.
Report Test K disease control rating for COc1cc(OC)c(-c2c(Cl)nc(-n3cncn3)c(=O)n2CC(C)C)c(OC)c1 [compound 112] please.
0* %

###

- Test system: Rhizoctonia oryzae
- method-notes: Test G: turf brown patch, preventive spray on creeping bent grass seedlings
- assay-conditions: 40 ppm (*)
Marks after values point to notes of the source that are not given here.
test-readout: Test G disease control rating

{"compound": "CS(=O)(=O)CCn1c(-c2c(F)cccc2F)c(Cl)nc(-n2cccn2)c1=O [compound 126]", "measured-value": "0* %"}
{"compound": "CCCCn1c(-c2c(F)cc(F)cc2F)c(Cl)nc(-n2nccc2C)c1=O [compound 239]", "measured-value": "0* %"}
{"compound": "CCCC(C)n1c(-c2c(F)cccc2F)c(Cl)nc(-n2cccn2)c1=O (centres unmarked) [compound 180]", "measured-value": "94* %"}
{"compound": "CSCCn1c(-c2c(F)cccc2F)c(Cl)nc(-n2cccn2)c1=O [compound 97]", "measured-value": "0* %"}
{"compound": "CCCCn1c(-c2c(F)cccc2F)c(Cl)nc(-n2cccn2)c1=O [compound 148]", "measured-value": "81* %"}

What does the record list as Test G disease control rating for Cc1cccc(-c2c(Cl)nc(-n3cncn3)c(=O)n2CC(C)C)c1 [compound 247] ?
0* %

Quick check: Test G disease control rating of O=c1c(-n2cncn2)nc(Cl)c(-c2c(F)cccc2F)n1CCCl [compound 125] ?
0* %

GET /values?readout=Test G disease control rating&item= CCCCn1c(-c2c(F)cc(F)cc2F)c(Cl)nc(N2CCC=N2)c1=O [compound 226]
0* %

// query Test G disease control rating value for entry CC(CS(C)(=O)=O)n1c(-c2c(F)cccc2F)c(Cl)nc(-n2cccn2)c1=O (centres unmarked) [compound 200]
0* %

I am curious: what Test G disease control rating value has been reported for O=c1c(-n2cccn2)nc(Cl)c(-c2c(F)cccc2F)n1CC1CCCO1 (centres unmarked) [compound 91] ?
0* %

Could you share which Test G disease control rating value was measured for CC(C)Cn1c(-c2cc(Br)c3c(c2)OCO3)c(Cl)nc(-n2cncn2)c1=O [compound 115] ?
0* %

###

- Test system: Pythium aphanidermatum
- method-notes: Test A: bluegrass pythium blight, preventive spray on bluegrass seedlings
- assay-conditions: 200 ppm
Listing: Test A disease control rating of selected molecules
Just the number in %, nothing appended.

// known answers, use as guide
{"molecule": "COCCn1c(-c2c(F)cccc2F)c(Cl)nc(-n2cncn2)c1=O [compound 96]", "Test A disease control rating [%]": 0}
{"molecule": "COc1ccccc1-c1c(Cl)nc(-n2cccn2)c(=O)n1CC(C)C [compound 176]", "Test A disease control rating [%]": 0}
{"molecule": "CC(C)Cn1c(-c2ccc(Cl)s2)c(Cl)nc(-n2cncn2)c1=O [compound 157]", "Test A disease control rating [%]": 0}
{"molecule": "CCC(C)Cn1c(-c2c(F)cccc2F)c(Cl)nc(NN2CCOCC2)c1=O (centres unmarked) [compound 135]", "Test A disease control rating [%]": 0}

Then there is this molecule:
State the recorded Test A disease control rating for this entry: CC(C)=NNc1nc(Cl)c(-c2c(F)cccc2F)n(CC(C)C)c1=O [compound 48]
0
